Target: T1, Human CD19-his protein (human, UniProt P15391 20-291)
T1 construct: bought protein; also called human CD19 protein; recombinant human CD19-His; not shown: His tag
T1 sequence (looked up): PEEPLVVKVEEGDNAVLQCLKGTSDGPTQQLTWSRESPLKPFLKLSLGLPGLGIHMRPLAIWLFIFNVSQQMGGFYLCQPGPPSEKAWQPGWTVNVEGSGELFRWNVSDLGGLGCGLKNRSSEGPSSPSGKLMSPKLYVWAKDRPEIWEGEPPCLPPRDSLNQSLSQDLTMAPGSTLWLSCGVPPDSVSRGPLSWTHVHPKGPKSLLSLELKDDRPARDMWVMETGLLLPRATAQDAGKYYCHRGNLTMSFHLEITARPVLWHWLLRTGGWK
Test: ELISA, antibody at 0.0001 nM
Procedure: Human CD19-his protein (purchased from ACROBiosystems, catalog number: CD9-H52H2) was diluted with PBS to a final concentration of 4 μg/mL, and then added to a 96-well ELISA plate at 100 μl/well. […] The OD450 nm values were read by an ELISA microplate reader (Multimode Plate Reader, EnSight, purchased from Perkin Elmer).
propertyLabel: OD450
Response field accepts a number only; no unit should be typed.

Some binders with recorded OD450:
F1-mab003 (antibody, human IgG1, V domains shown, human-murine chimeric antibody, human IgG1) VH: EVQLQQSGPELVKPGASVKMSCKASGYTFTDYVMHWVRQTPGQGLEWIGYFNPYNDGTNYNEKFKVKATLTSDKSSTTAYMELSSLTSEDSAVYYCARGVYYYGRDFDYWGQGTTLTVSS VL: DVVLTQTPLSLPVSLGDQASISCRSSQSLENSNGNSYLNWYLQKPGQSPQLLIYRVSNRFSGVLDRFSGSGSGTDFTLKISRVEAEDLGVYFCLQITHVPWTFGGGTKLEIK: 0.06
F4.18.13 (antibody, human IgG1, V domains shown, human-murine chimeric antibody, human IgG1) VH: QVQLQQSGPELVKPGASVKISCKASGYAFSSFWMNWVKQRPGEGLEWIGRIYPGDGDTNYNGKFKGKATLTADDSSSTAYMQLSSLTSVDSAVYFCAREVIAAVVTTDFDYWGQGTTLTVSS VL: DIQMTQTTSSLSASLGDRVTISCRTSQDISNYLNWYLQKPDGTVKLLIYYTSGLHSGVPSRFSGSGSGTDYSLTISNLEPEDIATYFCQQGKTLPYTFGGGTKLEIK: 0.05
F5.2.9 (antibody, human IgG1, V domains shown, human-murine chimeric antibody, human IgG1) VH: QVTLKESGPGILQPSQTLSLTCSFSGFSLSTFGLGVGWVRQPSGKGLEWLAHIWWDDDKYYNPALKSRVTVSKETSKNQVFFKIANVDTADSATYYCARLSRGLRRDVVYAMDHWGQGTSVTVSS VL: DIQMTQTTSSLSASLGDRVTISCRASQDISNYLNWYQQKPDGSVKLLISYVSRLQSGVPSRFRGSGSGTDYSLTISNLDQEDIATYFCQQGIAFPYTFGGGTKLDIK: 0.08

Now turn to the next binder.
Value of OD450 reported for the binder F4.41.1 (antibody, human IgG1, V domains shown, human-murine chimeric antibody, human IgG1) VH: QVQLQQSGAELVRPGTSVKVSCKASGYAFTNYLIEWVKQRPGQGLEWIGVINPGSGDTLYNEKFKGKATLTADKSSTTAYMQLSGLTSDVSAIYFCARSPPITTIVADYFDYWGQGTTLTVSS VL: DIQMTQTTSSLSASLGDRVTISCRASQDISNYLNWYQQKPDGTVKLLIYYTSRLHSGVPSRFSGSGSGADYSLTISNLEQEDIATYFCQQGKTLPYTFGGGTKLEIK is 0.05
